# target.under.test: Albumin (Bos taurus)
# Sequence (P02769 whole entry): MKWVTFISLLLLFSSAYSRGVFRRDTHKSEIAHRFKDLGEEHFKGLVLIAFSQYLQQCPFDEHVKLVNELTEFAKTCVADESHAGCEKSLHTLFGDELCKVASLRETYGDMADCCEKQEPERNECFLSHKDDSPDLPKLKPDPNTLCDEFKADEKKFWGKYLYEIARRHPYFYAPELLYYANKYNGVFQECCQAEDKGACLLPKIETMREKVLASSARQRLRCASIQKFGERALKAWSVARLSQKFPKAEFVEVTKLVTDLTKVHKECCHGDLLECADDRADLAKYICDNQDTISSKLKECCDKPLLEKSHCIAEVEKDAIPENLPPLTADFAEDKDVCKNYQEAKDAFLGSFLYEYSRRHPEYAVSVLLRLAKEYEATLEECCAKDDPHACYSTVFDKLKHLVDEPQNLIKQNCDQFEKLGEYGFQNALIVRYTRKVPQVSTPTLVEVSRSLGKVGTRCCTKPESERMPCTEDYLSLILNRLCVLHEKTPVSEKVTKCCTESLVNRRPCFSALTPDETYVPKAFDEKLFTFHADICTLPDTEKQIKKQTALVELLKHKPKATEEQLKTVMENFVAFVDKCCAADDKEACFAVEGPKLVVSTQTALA
# assay.method.text: Binding affinity to Bos taurus (bovine) serum albumin after 5 min at 37 degC by Stern-Volmer plot analysis
# Format: ADME
# measurement.conditions: cattle, isolated protein
readout.type: Kq (×10¹² /M/s)

compound	measured.number
CCCCCCCCCCCCCC(=O)CC(O)S(=O)(=O)[O-].[Na+] (stereo not given) [TETRADECANOYL ACETAL SODIUM SULFITE]	9.32
CCCCCCCCCCCC(=O)CC(O)S(=O)(=O)[O-].[Na+] (stereo not given) [DODECANOYL ACETAL SODIUM SULFITE]	7.2

(A) CCCCCC(=O)CC(O)S(=O)(=O)[O-].[Na+] (stereo not given) [HEXANOYL ACETAL SODIUM SULFITE]
(B) CCCCCCCCCC(=O)CC(O)S(=O)(=O)[O-].[Na+] (stereo not given) [SODIUM HOUTTUYFONATE]
(C) CCCCCCCC(=O)CC(O)S(=O)(=O)[O-].[Na+] (stereo not given) [OCTANOYL ACETAL SODIUM SULFITE]
q: Arrange the 3 compounds from largest to smallest Kq. Reply with the labels, ordered as the question asks.
a: C, B, A
(C: 52.92 ×10¹² /M/s, B: 11.3 ×10¹² /M/s, A: 7.35 ×10¹² /M/s)
